# inhibition at 10 µM annotations
Target: human B1R (bradykinin receptor 1) (Homo sapiens)
Construct: expressed in transfected cells; host or cells: CHO K1 cells
Sequence (P46663 1-353): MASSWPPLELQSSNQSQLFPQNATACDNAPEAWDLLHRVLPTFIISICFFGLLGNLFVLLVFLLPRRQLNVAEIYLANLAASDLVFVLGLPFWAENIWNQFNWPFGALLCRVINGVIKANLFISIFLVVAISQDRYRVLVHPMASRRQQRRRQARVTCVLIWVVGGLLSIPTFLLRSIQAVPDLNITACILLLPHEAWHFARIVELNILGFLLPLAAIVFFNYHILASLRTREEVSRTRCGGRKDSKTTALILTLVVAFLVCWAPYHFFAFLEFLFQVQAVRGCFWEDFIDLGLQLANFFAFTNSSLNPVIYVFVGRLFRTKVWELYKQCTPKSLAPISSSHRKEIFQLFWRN
Experiment: FLIPR Ca2+ assay (Fluo-4) on CHO K1 cells stably transfected with the human B1R gene (hB1R cells): % inhibition at 10 μM / IC50, agonist Lys-Des-Arg9-bradykinin
Format: cell-based
Settings: CHO-K1, human B1R
outcome measure: inhibition at 10 µM (%)

compound="CC1(C)CC(NC(=O)c2cccc(C(F)(F)F)c2Cl)c2cc(C(=O)N3CCC4(CC3)CCN(c3ccncc3)CC4)ccc21 (stereo not drawn)" outcome_measure="inhibition at 10 µM" value_unit=% value=97
compound="CC1(C)CC(NC(=O)Cc2ccccc2Cl)c2cc(C(=O)N3CCC4(CC3)CCN(c3ccncc3)CC4)ccc21 (stereo not drawn)" outcome_measure="inhibition at 10 µM" value_unit=% value=99
compound=O=C(N[C@@H]1CCc2ccc(C(=O)N3CCC4(CC3)CCN(c3ccncc3)C4)cc21)c1c(Cl)cccc1C(F)(F)F outcome_measure="inhibition at 10 µM" value_unit=% value=100
compound="CC(C(=O)N[C@@H]1CCc2ccc(C(=O)N3CCC4(CCN(c5ccncc5)CC4)C3)cc21)c1ccccc1Cl (stereo partly drawn)" outcome_measure="inhibition at 10 µM" value_unit=% value=100
compound=O=C(N[C@H]1CCCc2ccc(C(=O)N3CCC4(CCN(c5ccncc5)CC4)C3)cc21)c1ccccc1Cl outcome_measure="inhibition at 10 µM" value_unit=% value=97
compound="O=C(NC1CCc2ccc(C(=O)N3CCC4(CC3)CCN(c3ccc(F)cc3)CC4)cc21)c1sccc1Cl (stereo not drawn)" outcome_measure="inhibition at 10 µM" value_unit=% value=93

====

Target: rat B1R (bradykinin receptor 1) (Rattus norvegicus, UniProt P97583)
Construct: expressed in transfected cells; host or cells: CHO K1 cells
Assay: FLIPR Ca2+ assay (Fluo-4) on CHO K1 cells stably transfected with the B1R gene of the rat (rB1R cells): % inhibition at 10 μM / IC50, agonist Des-Arg9-bradykinin
Type: cell-based
Details: CHO-K1, rat B1R
# label = rule met if inhibition at 10 µM >= 60% else rule not met

compound="CCC(CC)CN1CCC2(CC1)CCN(C(=O)Cc1ccc3c(c1)C(NC(=O)c1ccccc1Cl)CC3)C2 (centres unmarked) [IND_CC-806]" cat="rule met"
compound="O=C(c1ccc2c(c1)C(N(C(=O)c1ccccc1Cl)C1CC1)CC2)N1CCC2(CCN(Cc3c(F)cccc3F)CC2)C1 (centres unmarked) [IND_CC-520]" cat="rule met"
compound="O=C(CCC1CCCC1)NC1CCc2ccc(C(=O)N3CCC4(CCN(c5ccncc5)CC4)C3)cc21 (centres unmarked) [IND_CC-413]" cat="rule met"
compound="O=C(Nc1ccc(Cl)cc1C(F)(F)F)N1CCC2(CC1)CCN(C(=O)c1ccc3c(c1)C(N(C(=O)c1ccccc1Cl)C1CC1)CC3)C2 (centres unmarked) [IND_CC-714]" cat="rule not met"
compound="O=C(NC1CCc2ccc(C(=O)N3CCC4(CC3)CCN(c3ccncc3)CC4)cc21)c1c(F)cccc1C(F)(F)F (centres unmarked) [IND_CC-376]" cat="rule met"
compound="Cc1noc(C)c1CN1CCC2(CC1)CCN(C(=O)c1ccc3c(c1)C(NC(=O)c1c(F)cccc1Cl)CC3)CC2 (centres unmarked) [IND_CC-799]" cat="rule not met"
compound="CC(C)CN1CCC2(CC1)CCN(C(=O)c1ccc3c(c1)C(NC(=O)c1cccc(Cl)c1Cl)CC3)CC2 (centres unmarked) [IND_CC-757]" cat="rule not met"

====

# inhibition at 10 µM annotations
Target: rat B1R (bradykinin receptor 1) (Rattus norvegicus, UniProt P97583)
Construct: expressed in transfected cells; host or cells: CHO K1 cells
Sequence (P97583 1-337): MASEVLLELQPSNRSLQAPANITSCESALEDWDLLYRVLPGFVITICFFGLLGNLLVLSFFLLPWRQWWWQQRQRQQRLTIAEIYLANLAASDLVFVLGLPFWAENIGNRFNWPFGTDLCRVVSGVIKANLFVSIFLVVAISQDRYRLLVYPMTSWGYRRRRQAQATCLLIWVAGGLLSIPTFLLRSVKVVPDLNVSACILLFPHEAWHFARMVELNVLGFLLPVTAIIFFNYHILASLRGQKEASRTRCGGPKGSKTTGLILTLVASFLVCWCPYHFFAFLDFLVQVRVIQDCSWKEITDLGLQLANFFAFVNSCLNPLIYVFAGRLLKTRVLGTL
Test: FLIPR Ca2+ assay (Fluo-4) on CHO K1 cells stably transfected with the B1R gene of the rat (rB1R cells): % inhibition at 10 μM / IC50, agonist Des-Arg9-bradykinin
Format: cell-based
Conditions: CHO-K1, rat B1R
outcome measure: inhibition at 10 µM

molecule=O=C(c1ccc2c(c1)[C@H](NS(=O)(=O)c1ccccc1F)CC2)N1CCC2(CCN(c3ccncc3)CC2)C1 outcome_measure="inhibition at 10 µM" value=101%
molecule=O=C(N[C@@H]1CCc2ccc(C(=O)N3CCC4(CCN(c5ccncc5)CC4)C3)cc21)c1c(Cl)cccc1C(F)(F)F outcome_measure="inhibition at 10 µM" value=102%
molecule="O=C(c1ccc2c(c1)C(N(C(=O)c1ccccc1Cl)C1CC1)CC2)N1CCC2(CC1)CCN(c1ccncc1)CC2 (centres unmarked)" outcome_measure="inhibition at 10 µM" value=100%
molecule="CN(C(=O)c1ccc(F)cc1Cl)C1CCc2ccc(C(=O)N3CCC4(CC3)CCN(c3ccncc3)CC4)cc21 (centres unmarked)" outcome_measure="inhibition at 10 µM" value=103%
molecule="O=C(NC1CCc2ccc(C(=O)N3CCC4(CCN(Cc5cc(F)ccc5F)CC4)C3)cc21)c1cc(C(F)(F)F)ccc1Cl (centres unmarked)" outcome_measure="inhibition at 10 µM" value=75%
molecule="O=C(NC1CCc2ccc(C(=O)N3CCC4(CCN(Cc5ccc6ncccc6c5)CC4)C3)cc21)c1cccc(Cl)c1Cl (centres unmarked)" outcome_measure="inhibition at 10 µM" value=71%
molecule="CN(C(=O)c1cc(F)ccc1Cl)C1CCc2ccc(C(=O)N3CCC4(CC3)CCN(c3ccncc3)CC4)cc21 (centres unmarked)" outcome_measure="inhibition at 10 µM" value=103%
molecule=O=C(c1ccc2c(c1)CC[C@@H]2N1Cc2cccc(Cl)c2C1=O)N1CCC2(CC1)CCN(c1ccncc1)CC2 outcome_measure="inhibition at 10 µM" value=100%
molecule="Cc1nc(CN2CCC3(CC2)CCN(C(=O)c2ccc4c(c2)C(NC(=O)c2c(C)cccc2Cl)CC4)C3)c[nH]1 (centres unmarked)" outcome_measure="inhibition at 10 µM" value=58%
molecule="CCC(C)C(=O)NC1CCc2ccc(C(=O)N3CCC4(CCN(c5ccncc5)CC4)C3)cc21 (centres unmarked)" outcome_measure="inhibition at 10 µM" value=102%
molecule="COc1cccc(F)c1CN1CCC2(CC1)CCN(C(=O)c1ccc3c(c1)C(NC(=O)c1cc(C(F)(F)F)ccc1Cl)CC3)CC2 (centres unmarked)" outcome_measure="inhibition at 10 µM" value=76%
molecule="Cn1cccc1CN1CCC2(CC1)CCN(C(=O)c1ccc3c(c1)C(NC(=O)c1cc(C(F)(F)F)ccc1Cl)CC3)CC2 (centres unmarked)" outcome_measure="inhibition at 10 µM" value=78%
molecule="Cc1cccc(Cl)c1C(=O)NC1CCc2ccc(C(=O)N3CCC4(CCN(Cc5cccc(C#N)c5)CC4)C3)cc21 (centres unmarked)" outcome_measure="inhibition at 10 µM" value=100%
molecule="O=C(NC1CCc2ccc(C(=O)N3CCC4(CC3)CCN(c3ccncc3)C4)cc21)c1c(F)cccc1F (centres unmarked)" outcome_measure="inhibition at 10 µM" value=104%
molecule="O=C(NC1CCc2ccc(C(=O)N3CCC4(CCN(Cc5c(F)cccc5F)CC4)CC3)cc21)c1c(F)cccc1Cl (centres unmarked)" outcome_measure="inhibition at 10 µM" value=71%
molecule="O=C(NC1CCc2ccc(C(=O)N3CCC4(CCN(Cc5ccc(F)cc5Cl)CC4)CC3)cc21)c1c(F)cccc1Cl (centres unmarked)" outcome_measure="inhibition at 10 µM" value=89%
molecule=O=C(N[C@@H]1CCc2ccc(C(=O)N3CCC4(CCC(C(=O)N[C@@H]5CN6CCC5CC6)CC4)CC3)cc21)c1ccccc1Cl outcome_measure="inhibition at 10 µM" value=102%
molecule="O=C(NCc1ccccc1)N1CCC2(CC1)CCN(C(=O)c1ccc3c(c1)C(N(C(=O)c1ccccc1Cl)C1CC1)CC3)C2 (centres unmarked)" outcome_measure="inhibition at 10 µM" value=80%
molecule="O=C(NCc1ccc(Cl)c(Cl)c1)N1CCC2(CC1)CCN(C(=O)c1ccc3c(c1)C(N(C(=O)c1ccccc1Cl)C1CC1)CC3)C2 (centres unmarked)" outcome_measure="inhibition at 10 µM" value=70%
molecule="CN(C)c1ncc(CN2CCC3(CC2)CCN(C(=O)c2ccc4c(c2)C(NC(=O)c2cccc(Cl)c2Cl)CC4)CC3)cn1 (centres unmarked)" outcome_measure="inhibition at 10 µM" value=90%
molecule="O=C(NC1CCc2ccc(C(=O)N3CCC4(CCN(CCCc5cccc(F)c5)CC4)C3)cc21)c1c(F)cccc1Cl (centres unmarked)" outcome_measure="inhibition at 10 µM" value=106%
molecule="O=C(c1ccc2c(c1)C(N(C(=O)c1ccccc1Cl)C1CC1)CC2)N1CCC2(CCN(Cc3c(F)cccc3Cl)CC2)C1 (centres unmarked)" outcome_measure="inhibition at 10 µM" value=72%
molecule="O=C(NC1CCc2ccc(C(=O)N3CCC4(CC3)CCN(c3ccc(C(F)(F)F)cc3)CC4)cc21)c1cccc(Cl)c1Cl (centres unmarked)" outcome_measure="inhibition at 10 µM" value=105%
